assay: probe aNOTCH3 binding on compound microarray – biochemical, small-molecule microarray, 635/667 nm fluorescence, primary screen (AID 1120); settings: higher = more signal;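 also: probe is a biotin-tagged antibody raised against NOTCH3 rather than NOTCH3 protein; score merges spot fluorescence near 667 nm with spot signal to noise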
Quick rule: composite z-score of at least 0.006 means 1 (yes), below that means 0 (no).

Take a look at these entries with their results.
| compound | label |
| --- | --- |
| CN(C)CCCCNC(=O)[C@H]1C[C@H]2C(=O)N[C@@H](CCCC[N+](C)(C)C)C(=O)N2[C@H]1c1cccc(OCCO)c1 | 0 (no) |
| COCCOC(=O)N1C(=O)[C@@]2(c3cc(C#Cc4ccc(OC)cc4)ccc31)[C@H](c1ccc(OCCO)cc1)N1[C@H](c3ccccc3)[C@H](c3ccccc3)OC(=O)[C@H]1[C@@H]2C(N)=O | 1 (yes) |
| C=CCC(OC(C)=O)[C@@H]1[C@@H](N(Cc2ccc(-c3cccc(C(F)(F)F)c3)o2)C(=O)c2cccc3ccccc23)c2cc(OCCCO)ccc2N1C(=O)c1ccc(-c2ccccc2)cc1 (stereo not given in full) | 0 (no) |
| COC(=O)C(CC#Cc1ccc2c(c1)[C@]1(C(=O)N2)[C@H](c2ccccc2OCCO)N2[C@H](c3ccccc3)[C@H](c3ccccc3)OC(=O)[C@H]2[C@@H]1C(=O)Nc1nc2ccccc2s1)C(=O)OC | 1 (yes) |

We next turn to a different compound, shown below.
**Q:** Does "COc1ccc(C#Cc2ccc3c(c2)[C@]2(C(=O)N3)[C@H](C(N)=O)[C@H]3C(=O)O[C@H](c4ccccc4)[C@H](c4ccccc4)N3[C@@H]2c2ccc(O)cc2)cc1" have a reported composite z-score of at least 0.006?
**A:** 0 (no)

---

tested on: glycogen synthase kinase-3 (GSK3A per assay name; protocol says GSK3B); assay: compounds binding glycogen synthase kinase-3 – biochemical, small-molecule microarray, 635 nm fluorescence, GSK3A, primary screen (AID 1103); conditions: fluorescence 635 nm, higher = more signal; also: the record names both GSK3A and GSK3B
metric: composite z-score
Give bare numbers.

In the examples that follow, each entry is paired with its recorded composite z-score.
| record_smiles | result |
| --- | --- |
| OCc1ccc(-c2cc[n+](Cc3cccc(OC(F)(F)F)c3)cc2)cc1 | 0.869 |
| COc1ccc(C#Cc2ccc3c(c2)[C@]2(C(=O)N3)[C@H](C(=O)O)[C@H]3C(=O)O[C@H](c4ccccc4)[C@H](c4ccccc4)N3[C@@H]2c2ccc(OCCO)cc2)cc1 | 0.984 |
| C=C(CCCC)/C(=C/C[C@H](OC(=O)c1ccncc1)c1ccc(CO)o1)c1cc(C(=O)OC)ccc1OC | 1.26 |

Now look at this entry.
**Q:** Observed composite z-score on glycogen synthase kinase-3 (GSK3A per assay name; protocol says GSK3B) for "COC(=O)[C@@]1(Cc2ccccc2)[C@H]2c3cc(C(=O)N4CCCC4)n(CCO)c3C[C@H]2CN1C(=O)c1ccccc1" , please.
**A:** 0.343

---

So I've got a bunch of molecules here, and I need their z-score values.
experiment: calcein-AM signal in unstimulated myeloma cells – cell-based, calcein-AM fluorescence, 48 h, PK04 Diversity Set, profiling panel (AID 1166); settings: RPMI8226 myeloma viability, higher = more signal;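 also: cells grown under basal conditions without added stimulus; test concentration not given here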
Answers are plain numbers.

Before answering, review these 3 worked examples.
| molecule | z-score |
| --- | --- |
| C=C[C@@H](O)[C@H]1CC(c2ccccc2)=NO1 | 0.353 |
| COC(=O)[C@@]1(Cc2ccc(F)cc2)[C@H]2c3cc(C(=O)N4CCCC4)n(Cc4ccccc4)c3C[C@H]2CN1C(=O)c1ccccc1 | -4.11 |
| COCCOC(=O)N1C(=O)[C@@]2(c3cc(C#CCC(C(=O)OC)C(=O)OC)ccc31)[C@H](C(=O)N1CCCCCCC1)[C@H]1C(=O)O[C@H](c3ccccc3)[C@H](c3ccccc3)N1[C@@H]2c1ccc(O)cc1 | -1.39 |

The record that follows has no z-score shown yet.
**Q:** May I ask what z-score has been recorded for Cc1ccccc1C(O)C1C=CC2C(=O)N(C)C(=O)C2N1Nc1ccc([N+](=O)[O-])cc1[N+](=O)[O-] (centres undefined) ?
**A:** -0.582
